assay: gradient 5% acetonitrile 3 min, to 50% in 2 min, to 85% in 15 min, held 3 min, 100 µL/min; details: column: Zorbax Extend-C18 2.1 x 50 mm; eluents: water / acetonitrile, 0.1% formic acid
ASSAY ENDPOINT: RP-LC retention time (s)

SMILES DATA | RP-LC retention time [s]
O=C(Nc1ccc2c(c1)OCCO2)C1CCN(c2cc(N3CCCC3)ncn2)CC1 | 630
CC1=NS(=O)(=O)N(C)C=C1C(=O)OCc1ccccc1 | 882
COc1ccc(CNC(=O)c2cn(C)nc2S(=O)(=O)N2CCSCC2)cc1 | 818
Cc1cccc(NC(=O)Nc2cccc(-c3ccc(N4CCOCC4)nn3)c2)c1 | 714
COC(=O)c1ccc(-c2nc3cnccn3c2Nc2ccc(C(C)C)cc2)cc1 | 1070
CSc1cccc(NS(=O)(=O)c2cc3c(s2)CCN(C(=O)C2CC2)C3)c1 | 860
COc1ccc(N2CCN(c3cc(SCC(=O)Nc4cc(OC)cc(OC)c4)ncn3)CC2)cc1 | 814

1. Brc1ccc(OCc2nnc3sc(-c4ccncc4)nn23)cc1
2. FC(F)(F)c1ccc(/C=C/c2nc(COc3ccc(CCCCn4ccnn4)cc3)co2)cc1
Prompt: Consider entries 1 and 2 . Which has the numerically lower RP-LC retention time? Lab log: write the label of the selected item as the result.
Completion: 1
